B1: FBXO34 (parent)
chain: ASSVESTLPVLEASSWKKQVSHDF

# Variants of: B1
# ASSAY PROCEDURE: protein stability index of a GFP-peptide fusion (GPS, HEK-293T) (PSI 1-6); higher = more stable;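 also: lentivirally expressed fusions sorted by FACS into six bins by GFP to DsRed ratio, PSI derived from sequencing read proportions per bin multiplied by bin number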
# TEST PARAMETERS: c terminus: a fixed tail appended
Output true (1) for protein stability index not less than 3; output false (0) otherwise.

L8V: false (0)
S14H: false (0)
E12Y: false (0)
Q19K: false (0)
W16P: true (1)
P9K: false (0)

State whether the measured protein stability index reaches 3, counting equality as reaching it, for P9T false (0)

State whether the measured protein stability index reaches 3, counting equality as reaching it, for E5C false (0)

State whether the measured protein stability index reaches 3, counting equality as reaching it, for K18C false (0)
